Data export: DILI prediction hLiMTs (HCS-MEC) values recorded with hLiMTs.
outcome measure: DILI prediction hLiMTs (HCS-MEC)

>>> result("CN(C)C(=O)Oc1cccc([N+](C)(C)C)c1")
"-VE"
>>> result("CCOC(=O)c1ncn2c1CN(C)C(=O)c1cc(F)ccc1-2 [flumazenil, reference compound]")
"-VE"
>>> result("CC(COc1ccccc1)N(CCCl)Cc1ccccc1 (stereo not drawn)")
"-VE"

---

System: HepaRG spheroids
Assay: Combined HCI (HCS) and cellular ATP 3D assay in HepaRG spheroids
Conditions: HepaRG; ATP endpoint; cut-off <100x Avg Cmaxu
outcome measure: HepaRG <100x Avg Cmaxu ATP

>>> result("O=C1CN(/N=C/c2ccc(-c3ccc([N+](=O)[O-])cc3)o2)C(O)=N1 [dantrolene]")
"+ve (<100x Avg Cmaxu)"
>>> result("NNC(=O)c1ccncc1 [isoniazid, reference compound]")
"+ve (<100x Avg Cmaxu)"
>>> result("CNC1(C)C2CCC(C2)C1(C)C (centres unmarked) [mecamylamine]")
"-ve"
>>> result("Cc1ccc(C(=O)c2cc(O)c(O)c([N+](=O)[O-])c2)cc1 [tolcapone, reference compound]")
"-ve"
>>> result("NC(=O)N1c2ccccc2C=Cc2ccccc21 [carbamazepine, reference compound]")
"+ve (<100x Avg Cmaxu)"
>>> result("CC(C)C(=O)Nc1ccc([N+](=O)[O-])c(C(F)(F)F)c1 [flutamide, reference compound]")
"+ve (<100x Avg Cmaxu)"
>>> result("CS(=O)(=O)CCNCc1ccc(-c2ccc3ncnc(Nc4ccc(OCc5cccc(F)c5)c(Cl)c4)c3c2)o1 [lapatinib]")
"+ve (<100x Avg Cmaxu)"
>>> result("CCCC(CCC)C(=O)O [valproic acid]")
"+ve (<100x Avg Cmaxu)"
>>> result("COc1ccccc1Oc1c(NS(=O)(=O)c2ccc(C(C)(C)C)cc2)nc(-c2ncccn2)nc1OCCO [bosentan]")
"-ve"
>>> result("CN(Cc1cnc2nc(N)nc(N)c2n1)c1ccc(C(=O)N[C@@H](CCC(=O)O)C(=O)O)cc1 [methotrexate, reference compound]")
"+ve (<100x Avg Cmaxu)"
>>> result("CC/C(=C(\\c1ccccc1)c1ccc(OCCN(C)C)cc1)c1ccccc1 [tamoxifen]")
"-ve"
>>> result("CC[C@H]1OC(=O)[C@H](C)[C@@H](O[C@H]2C[C@@](C)(OC)[C@@H](O)[C@H](C)O2)[C@H](C)[C@@H](O[C@@H]2O[C@H](C)C[C@H](N(C)C)[C@H]2O)[C@](C)(O)C[C@@H](C)C(=O)[C@H](C)[C@@H](O)[C@]1(C)O [erythromycin]")
"-ve"
>>> result("Nc1cc(N2CCCCC2)nc(N)[n+]1[O-] [minoxidil]")
"-ve"
>>> result("Cc1c(C)c2c(c(C)c1O)CCC(C)(COc1ccc(CC3SC(=O)NC3=O)cc1)O2 (centres unmarked) [troglitazone, reference compound]")
"-ve"
>>> result("O=C1CN(/N=C/c2ccc([N+](=O)[O-])o2)C(=O)N1 [nitrofurantoin, reference compound]")
"+ve (<100x Avg Cmaxu)"
>>> result("CN(C)C(=O)Oc1cccc([N+](C)(C)C)c1 [neostigmine]")
"-ve"
>>> result("CC(=O)N1CCN(c2ccc(OCC3COC(Cn4ccnc4)(c4ccc(Cl)cc4Cl)O3)cc2)CC1 (centres unmarked) [ketoconazole, reference compound]")
"+ve (<100x Avg Cmaxu)"
>>> result("C#CCN(C)Cc1ccccc1 [pargyline]")
"-ve"
>>> result("O=C(O)Cc1ccccc1Nc1c(Cl)cccc1Cl [diclofenac]")
"-ve"
>>> result("O=c1[nH]c(=O)n([C@@H]2O[C@H](CO)[C@@H](O)[C@@H]2F)cc1I [fialuridine]")
"+ve (<100x Avg Cmaxu)"
>>> result("[H]/N=C(/N)N[C@H]1[C@H](O)[C@@H](O)[C@H](O[C@@H]2O[C@@H](C)[C@](O)(C=O)[C@H]2O[C@@H]2O[C@@H](CO)[C@H](O)[C@@H](O)[C@@H]2NC)[C@@H](N/C(N)=N\\[H])[C@@H]1O [streptomycin, reference compound]")
"+ve (<100x Avg Cmaxu)"
>>> result("CCOC(=O)CN[C@@H](C(=O)N1CC[C@H]1C(=O)NCc1ccc(/C(N)=N\\O)cc1)C1CCCCC1 [ximelagatran]")
"-ve"
>>> result("CN(C)CCC(c1ccc(Cl)cc1)c1ccccn1 (centres unmarked) [chlorpheniramine]")
"-ve"
>>> result("C1CCC(C(CC2CCCCN2)C2CCCCC2)CC1 (centres unmarked) [perhexiline]")
"+ve (<100x Avg Cmaxu)"
>>> result("N[C@@H](Cc1cc(I)c(Oc2ccc(O)c(I)c2)c(I)c1)C(=O)O [liothyronine]")
"-ve"
>>> result("CCc1ccc(CCOc2ccc(CC3SC(=O)NC3=O)cc2)nc1 (centres unmarked) [pioglitazone, reference compound]")
"-ve"
>>> result("Cc1c(-c2ccccc2)oc2c(C(=O)OCCN3CCCCC3)cccc2c1=O [flavoxate]")
"-ve"
>>> result("C[N+](C)(C)CC(=O)O [betaine, reference compound]")
"-ve"
>>> result("CC(C)(C)NCC(O)COc1cccc2c1CC(O)C(O)C2 (centres unmarked) [nadolol]")
"-ve"
>>> result("CN(C)CCCN1c2ccccc2Sc2ccc(Cl)cc21 [chlorpromazine, reference compound]")
"+ve (<100x Avg Cmaxu)"
>>> result("CCN(CC)CCNC(=O)c1c(C)[nH]c(/C=C2\\C(=O)Nc3ccc(F)cc32)c1C [sunitinib]")
"-ve"
>>> result("CC(=O)Oc1ccccc1C(=O)O [acetylsalicylic acid]")
"+ve (<100x Avg Cmaxu)"
